# inhibition at 1 µM per record follows
target: UniProt:P41587; experiment: Inhibition of VIP-induced cAMP elevation (% Activity cAMP); type: cell-based; parameters: expressed in transfected cells; host or cells: HEK293 cells transfected with VIPR2 in pCDNA3.1 (as described); details: 1 μM, Batch 2
Sequence (P41587 24-438): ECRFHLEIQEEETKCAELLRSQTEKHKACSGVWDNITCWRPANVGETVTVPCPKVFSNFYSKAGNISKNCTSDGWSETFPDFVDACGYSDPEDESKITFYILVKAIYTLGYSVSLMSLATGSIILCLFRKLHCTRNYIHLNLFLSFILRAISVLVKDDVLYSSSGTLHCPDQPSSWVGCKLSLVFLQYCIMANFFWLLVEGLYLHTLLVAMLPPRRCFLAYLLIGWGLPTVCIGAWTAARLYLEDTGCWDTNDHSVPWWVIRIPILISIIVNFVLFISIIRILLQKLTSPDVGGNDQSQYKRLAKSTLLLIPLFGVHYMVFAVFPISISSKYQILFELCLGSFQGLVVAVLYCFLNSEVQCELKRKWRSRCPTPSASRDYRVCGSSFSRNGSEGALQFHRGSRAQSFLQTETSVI
measured_endpoint: inhibition at 1 µM (%)

>>> print(df.to_string())
                                   molecule   measured_endpoint  recorded_value
0  CCN(CC)C(=O)[C@H](Cc1ccccc1)C[C@H](O)CNS(=O)(=O)c1ccc([N+](=O)[O-])cc1 [Compound B15A]  inhibition at 1 µM            -6.1
1  O=C(NC1CCCc2ccccc21)[C@@H](Cc1ccccc1)C[C@H](O)CNS(=O)(=O)c1ccc([N+](=O)[O-])cc1 (stereo partly shown) [Compound B13B]  inhibition at 1 µM             6.6
2  O=C([C@H](Cc1ccccc1)C[C@H](O)CNS(=O)(=O)c1ccc([N+](=O)[O-])cc1)N1CCCCC1 [Compound B18A]  inhibition at 1 µM            -4.8
3  CNC(=O)[C@H](Cc1ccccc1)C[C@H](O)CNS(=O)(=O)c1ccc([N+](=O)[O-])cc1  inhibition at 1 µM             8.3
4  O=C(NC1Cc2ccccc2C1)[C@H](Cc1ccccc1)C[C@H](O)CNS(=O)(=O)c1ccc([N+](=O)[O-])cc1  inhibition at 1 µM             7.5
5  O=C(NCc1ccc(F)cc1F)[C@H](Cc1ccccc1)C[C@H](O)CNS(=O)(=O)c1ccc([N+](=O)[O-])cc1 [Compound B14A]  inhibition at 1 µM             7.2
6  O=C(NN1CCCCC1)[C@H](Cc1ccccc1)C[C@H](O)CNS(=O)(=O)c1ccc([N+](=O)[O-])cc1  inhibition at 1 µM             7.1
